- Test system: LOC_OS02G54510-cb004
- ASSAY METHOD TEXT: thermal shift delta Tm vs DMSO control; higher = stronger stabilization (binding);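 also: purified Escherichia coli-expressed rice kinase domain construct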
- MEASUREMENT CONTEXT: 12.5 µM; protein concentration 2 µM
REPORTED METRIC: thermal shift delta Tm (°C)
A number alone suffices; assume °C.

Some compounds with recorded thermal shift delta Tm:
>>> recorded_number("CCN1CCN(Cc2ccc(C(=O)Nc3ccc(C)c(Oc4ccc5c(c4)CC(=O)N5)c3)cc2C(F)(F)F)CC1")
0.41
>>> recorded_number("CCCCCCCCCCCCCCCCn1cc[n+](Cc2ccccc2)c1C")
-1.83
>>> recorded_number("Cc1cc(Nc2cc(N3CCN(C)CC3)nc(/C=C/c3ccccc3)n2)n[nH]1")
2.74
>>> recorded_number("CCNC(=O)C#Cc1ccc2c(C(=Nc3ccc(CN(C)C)cc3)c3ccccc3)c(O)[nH]c2c1")
2.44
>>> recorded_number("Oc1cc(CNC(=S)/C=C/c2cc(O)c(O)c(Br)c2)cc(O)c1O")
-0.88
>>> recorded_number("COc1ccc(-c2ccc3c(N4CCOCC4)nc(N4C[C@@H](C)O[C@@H](C)C4)nc3n2)cc1CO")
-0.13
>>> recorded_number("O=C(NCCCNc1nc(Nc2cccc(NC(=O)N3CCCC3)c2)ncc1I)c1cccs1")
1.24
>>> recorded_number("CC(C)(C)c1ccc(S(=O)(=O)/C=C/C#N)cc1")
1.26

Task item: # thermal shift delta Tm lookup, item Cc1cnc(NC(=O)Nc2cc(Br)c(C)cc2OC[C@@H]2CNCCO2)cn1
Reply: 0.18

Task item: # thermal shift delta Tm lookup, item Nc1ncnc2n[nH]c(Nc3ccc(F)cc3)c12
Reply: 0.26

Task item: # thermal shift delta Tm lookup, item COc1cc(N2CCC(N(C)C)CC2)ccc1Nc1ncc(Cl)c(Nc2ccccc2P(C)(C)=O)n1
Reply: 0.23

----------
- Tested on: LOC_OS02G14120-cb001
- ASSAY METHOD TEXT: thermal shift delta Tm vs DMSO control; higher = stronger stabilization (binding)
- MEASUREMENT CONTEXT: 12.5 µM; protein concentration 2 µM
Listed here are compounds together with their documented thermal shift delta Tm.
A number alone suffices; assume °C.

Some compounds with recorded thermal shift delta Tm:
>>> recorded_number("CNC(=O)CN1CCC(Oc2cc3c(Nc4cccc(Cl)c4F)ncnc3cc2OC)CC1")
2.09
>>> recorded_number("CCOc1cc2ncc(C#N)c(Nc3ccc(OCc4ccccn4)c(Cl)c3)c2cc1NC(=O)/C=C/CN(C)C")
1.97
>>> recorded_number("CNC(=O)c1cc(Oc2ccc3nc(N[C@@H]4CCCC[C@H]4O)sc3c2)ccn1")
-0.02
>>> recorded_number("COC1(c2sc3c(N4CCOCC4)nc(-c4cnc(N)nc4)nc3c2C)COC1")
0.63
>>> recorded_number("CC(=O)O/N=C1/C(c2c(O)[nH]c3cc(Br)ccc23)=Nc2ccccc21")
-2.97
>>> recorded_number("O=C1NCCc2[nH]c(-c3ccncc3)cc21")
1.75
>>> recorded_number("COc1cc(Nc2c(C#N)cnc3cc(OCCCN4CCN(C)CC4)c(OC)cc23)c(Cl)cc1Cl [Bosutinib (SKI-606)]")
0.1
>>> recorded_number("O=C1Nc2ccc(CN3C(=O)CSC3=O)cc2/C1=C/c1cc(CN2CCOCC2)c[nH]1")
9.24
>>> recorded_number("CN1CCC(CNc2ccc3ncc(-c4cccc(OC(F)(F)F)c4)n3n2)CC1 [SGI-1776 free base]")
7.23
>>> recorded_number("C=CC(=O)Nc1cccc(Oc2nc(Nc3ccc(N4CCN(C)CC4)cc3)ncc2Cl)c1")
8.31

Task item: # thermal shift delta Tm lookup, item c1cncc(CN2CCC(n3ncc4c(N5CCOCC5)nc(-c5ccc6[nH]ccc6c5)nc43)CC2)c1
Reply: 0.15

Task item: # thermal shift delta Tm lookup, item C[C@H](CN(C)C)Oc1nc(Nc2cc3cccc(Cl)c3cn2)cnc1C#N
Reply: 2.95

Task item: # thermal shift delta Tm lookup, item CCc1nc(C(N)=O)c(Nc2ccc(N3CCC(N4CCN(C)CC4)CC3)c(OC)c2)nc1NC1CCOCC1
Reply: 13.1

Task item: # thermal shift delta Tm lookup, item CC(C)(O)CNc1ncc(-c2ccnc(Nc3ccncc3)n2)c(CC2CC2)n1
Reply: 4.52

Task item: # thermal shift delta Tm lookup, item COc1cc2nccc(Oc3ccc(NC(=O)Nc4cc(C)on4)c(Cl)c3)c2cc1OC
Reply: 6.58

Task item: # thermal shift delta Tm lookup, item CN1CCN(Cc2ccc(NC(=O)Nc3ccc(Oc4ccnc(N)n4)cc3)cc2C(F)(F)F)CC1
Reply: 6.74

Task item: # thermal shift delta Tm lookup, item FC(F)c1nc2ccccc2n1-c1nc(N2CCOCC2)nc(N2CCOCC2)n1
Reply: 0.41

Task item: # thermal shift delta Tm lookup, item CN1CCC(COc2cnc(-c3cccc(Cn4nc(-c5cccc(C#N)c5)ccc4=O)c3)nc2)CC1
Reply: 0.1

Task item: # thermal shift delta Tm lookup, item OC(c1cc(-c2ccc(Cl)cc2)nc2ccccc12)C1CCCCN1 (stereo not given)
Reply: 0.39

Task item: # thermal shift delta Tm lookup, item CCOc1cc2ncc(C#N)c(Nc3ccc(F)c(Cl)c3)c2cc1NC(=O)/C=C/CN(C)C [Pelitinib (EKB-569)]
Reply: 0.98

Hello, the source for this data is the supplement of paper PMC9694430, in case you need it.
